As a worked illustration, we turn to IC50 data collected for PI3K γ (Homo sapiens (Human), UniProt P48736).
measurementName: IC50

> print(dat)
                                smilesrecord                            targetorsystem         reported
 1  Cc1cccc(-n2c([C@H](C)NC(=O)c3c(N)nn4cccnc34)cc3cccc(C#Cc4cnn(C)c4)c3c2=O)c1  PI3K γ (Homo sapiens (Human), UniProt P48736)    100 to 500 nM
 2  C[C@H](NC(=O)c1c(N)nn2cccnc12)c1cc2cccc(C#CC(C)(C)O)c2c(=O)n1-c1ccccc1  PI3K γ (Homo sapiens (Human), UniProt P48736)    100 to 500 nM
 3  Cc1c(C#Cc2cccc3cc([C@H](C)NC(=O)c4c(N)nn5cccnc45)n(-c4ccccc4)c(=O)c23)cnn1C  PI3K γ (Homo sapiens (Human), UniProt P48736)    100 to 500 nM
 4  Cc1csc(C#Cc2cccc3cc([C@H](C)NC(=O)c4c(N)nn5cccnc45)n(-c4ccccc4)c(=O)c23)n1  PI3K γ (Homo sapiens (Human), UniProt P48736)    100 to 500 nM
 5  COc1ccc(C#Cc2cccc3cc([C@H](C)NC(=O)c4c(N)nn5cccnc45)n(-c4ccccc4)c(=O)c23)cn1  PI3K γ (Homo sapiens (Human), UniProt P48736)    100 to 500 nM
 6  Cc1ccc(C#Cc2cccc3cc([C@H](C)NC(=O)c4c(N)nn5cccnc45)n(-c4ccccc4)c(=O)c23)cn1  PI3K γ (Homo sapiens (Human), UniProt P48736)      1 to 100 nM
 7  C[C@H](NC(=O)c1c(N)nn2cccnc12)c1cc2cccc(C#Cc3cnc[nH]3)c2c(=O)n1-c1ccccc1  PI3K γ (Homo sapiens (Human), UniProt P48736)    100 to 500 nM
 8  Cc1c(C#Cc2cccc3nc([C@H](C)NC(=O)c4c(N)nn5cccnc45)n(-c4ccccc4)c(=O)c23)cnn1C  PI3K γ (Homo sapiens (Human), UniProt P48736)    100 to 500 nM
 9  C[C@H](NC(=O)c1c(N)nn2cccnc12)c1cc2cccc(C#Cc3ccccc3)c2c(=O)n1-c1ccccc1  PI3K γ (Homo sapiens (Human), UniProt P48736)  1000 to 5000 nM
10  C[C@H](NC(=O)c1c(N)nn2cccnc12)c1cc2cccc(C#CCN3CCCC3=O)c2c(=O)n1-c1ccccc1  PI3K γ (Homo sapiens (Human), UniProt P48736)      1 to 100 nM
11  Cc1ncc(C#Cc2cccc3cc([C@H](C)NC(=O)c4c(N)nn5cccnc45)n(-c4ccccc4)c(=O)c23)s1  PI3K γ (Homo sapiens (Human), UniProt P48736)    100 to 500 nM
12  C[C@H](NC(=O)c1c(N)nn2cccnc12)c1cc2cccc(C#CC3CCNCC3)c2c(=O)n1-c1ccccc1  PI3K γ (Homo sapiens (Human), UniProt P48736)   500 to 1000 nM
13  Cc1nn(C)c(C)c1C#Cc1cccc2cc([C@H](C)NC(=O)c3c(N)nn4cccnc34)n(-c3ccccc3)c(=O)c12  PI3K γ (Homo sapiens (Human), UniProt P48736)  1000 to 5000 nM
14  C[C@H](NC(=O)c1c(N)nn2cccnc12)c1cc2cccc(C#CC3CCOCC3)c2c(=O)n1-c1ccccc1  PI3K γ (Homo sapiens (Human), UniProt P48736)    100 to 500 nM
